Target: α7 nAChR S36T mutant (Homo sapiens, UniProt P36544, S58T)
Sequence (P36544 23-502 S58T): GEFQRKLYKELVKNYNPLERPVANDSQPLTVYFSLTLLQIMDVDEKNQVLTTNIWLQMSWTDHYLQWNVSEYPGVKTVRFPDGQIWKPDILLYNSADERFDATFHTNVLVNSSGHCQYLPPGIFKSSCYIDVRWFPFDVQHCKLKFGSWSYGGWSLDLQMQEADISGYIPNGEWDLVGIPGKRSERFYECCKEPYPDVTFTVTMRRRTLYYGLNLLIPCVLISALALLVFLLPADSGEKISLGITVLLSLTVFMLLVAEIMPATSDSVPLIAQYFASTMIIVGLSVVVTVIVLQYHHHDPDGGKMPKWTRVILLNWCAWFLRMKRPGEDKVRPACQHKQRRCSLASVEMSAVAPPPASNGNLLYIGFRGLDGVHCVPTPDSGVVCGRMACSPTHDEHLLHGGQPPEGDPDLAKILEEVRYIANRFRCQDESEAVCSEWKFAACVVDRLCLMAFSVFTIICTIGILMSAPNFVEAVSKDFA
Assay: Residual desensitization
Settings: read-out: IC50 (RD curve), potency for producing long-lasting desensitization, 12 s applications
// reported IC50 for each item listed
Use µM as the unit, but write only the number.

C(=C1CCCN=C1c1cccnc1)c1ccccc1 [BA, benzylidene anabaseine] ... 720

Prompt line: Item Cc1ccc(C=C2CCCN=C2c2cccnc2)cc1 [4MeBA, 3-(4-methylbenzylidene)anabaseine] has what recorded IC50?
Response line: 450
